The origin of these recorded values is the supplement of paper PMC10981050.

# Tested on: MOLM14
# test_name: cell viability relative to vehicle control; higher = less cytotoxic;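 further: after 48 h exposure read by CellTiter-Glo luminescence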
# condition: 10 µM; SRSF2 genotype: SRSF2 wt/wt
measured_metric: cell viability (%)
Only the number, expressed in %, is required.

Which cell viability value belongs to O=c1cc(-c2ccc(O)cc2)oc2cc(O)cc(O)c12 ? 57.5

Ok, now N[C@@H](CSC(c1ccccc1)(c1ccccc1)c1ccccc1)C(=O)O 2.73

Same thing, different molecule: COc1ccc(COc2ccc(Cc3cnc(N)nc3N)cc2OC)cc1 88.3

Param item: CC1CCCCCCCCCCCCC(=O)C1 (configuration not stated) 89.2

Ok, now FC(F)(F)Oc1ccc2nc(-c3ccc(OCCOCCOc4ccc(-c5nc6ccc(OC(F)(F)F)cc6[nH]5)nc4)cn3)[nH]c2c1 41.3

Field entry: CCCCOc1nc(N)c2c(n1)N(Cc1cccc(CN3CCCC3)c1)CC(=O)N2 93.4

---

# System: MARIMO
# test_name: cell viability relative to vehicle control; higher = less cytotoxic
# condition: 10 µM; SRSF2 genotype: SRSF2 wt/wt
measured_metric: cell viability

Some compounds with recorded cell viability:
INSERT INTO assay_data (compound, experimental_system, assay_value) VALUES
  ('CN1C(N)=N[C@](C)(c2cc(NC(=O)c3ccc(F)cn3)ccc2F)CS1(=O)=O [Verubecestat (MK-8931) Trifluoroacetat]', 'MARIMO', '108%'),
  ('NC[C@@](O)(c1ccc(Cl)cc1)c1ccc(-c2cn[nH]c2)cc1', 'MARIMO', '56.4%'),
  ('Oc1ccc(OC2CCCCO2)cc1 (centres undefined) [Deoxyarbutin]', 'MARIMO', '93.3%'),
  ('COc1cccc(-c2cc(NCc3ccc4c(c3)OCO4)nc(N)n2)c1 [Wnt agonist 1]', 'MARIMO', '9.19%'),
  ('C#C[C@]1(OC(C)=O)CC[C@H]2[C@@H]3CCC4=C[C@@H](OC(C)=O)CC[C@@H]4[C@H]3CC[C@@]21C [Ethynodiol diacetate]', 'MARIMO', '46.5%');

What value of measured cell viability is listed for Cc1cc(-c2ccc(/N=N/c3ccc4c(S(=O)(=O)O)cc(S(=O)(=O)O)c(N)c4c3O)c(C)c2)ccc1/N=N/c1ccc2c(S(=O)(=O)O)cc(S(=O)(=O)O)c(N)c2c1O [Evans Blue] ? 72.2%

And the next one, C=C1/C(=C\C=C2/CCC[C@]3(C)[C@@H]([C@H](C)CCCC(C)C)CC[C@@H]23)C[C@@H](O)C[C@@H]1O [Alfacalcidol] ? 82.5%

---

# Test system: MOLM14
# test_name: cell viability relative to vehicle control; higher = less cytotoxic
# condition: 10 µM; SRSF2 genotype: SRSF2 wt/wt
Recorded measurements of cell viability, one per entry
All answers are understood in %, so give the number only.

Examples with answers:
INSERT INTO results (compound, experimental_system, measured_metric, assay_value) VALUES
  ('COc1ccc2cc(CCC(C)=O)ccc2c1', 'MOLM14', 'cell viability', 104),
  ('O=C(NOCC(O)CO)c1cc(Br)c(F)c(F)c1Nc1ccc(I)cc1F (centres undefined)', 'MOLM14', 'cell viability', 36.6),
  ('CN(C)CCc1c[nH]c2ccc(C[C@H]3COC(=O)N3)cc12 [Zolmitriptan (Zomig)]', 'MOLM14', 'cell viability', 104);

Name the reported cell viability value associated with the compound O=c1c(O)c(-c2ccc(O)c(O)c2)oc2cc(O)cc(O)c12 [Quercetin dihydrate (Sophoretin)] 99.6

---

# System: OCI-AML2
# test_name: cell viability relative to vehicle control; higher = less cytotoxic
# condition: 10 µM; SRSF2 genotype: P95H/wt
Structures can show the parent of a compound that is named as a salt.
The entries below are paired with their reported cell viability.
The answer is to be given in %; state only the numeric part.

Answered examples (5):
INSERT INTO measurements (compound, measured_metric, assay_value) VALUES
  ('O=c1cc(-c2ccccc2)oc2cc(O)c(O)c(O)c12', 'cell viability', 91.2),
  ('Cc1c(OCC(F)(F)F)ccnc1C[S+]([O-])c1nc2ccccc2[nH]1 (stereo unspecified)', 'cell viability', 91.7),
  ('CCN(CC)CC#CCOC(=O)C(O)(c1ccccc1)C1CCCCC1 (stereo unspecified)', 'cell viability', 91.8),
  ('CCOC(=O)c1c(C)n(C)c2ccc(O)cc12 [Mecarbinate]', 'cell viability', 92.2),
  ('CCCCCCCCCCCCCCCc1cccc(O)c1C(=O)O', 'cell viability', 87.5);

Which cell viability value is on record for Cn1cc(C(=O)[C@@H]2CCc3[nH]cnc3C2)c2ccccc21 [Ramosetron Hydrochloride] ? 92.2

---

Form field: cell viability (one value per entry).
# Tested on: K562
# test_name: cell viability relative to vehicle control; higher = less cytotoxic
# condition: 10 µM; SRSF2 genotype: SRSF2 wt/wt
Counter-ions that a name gives are not always drawn.
Report as a plain number; the unit % is understood.

Here is how some compounds turned out for cell viability.
INSERT INTO results (compound, experimental_system, assay_value) VALUES
  ('C=C(C)[C@@H]1CC[C@]2(C(=O)O)CC[C@]3(C)[C@H](CC[C@@H]4[C@@]5(C)CC[C@H](O[C@@H]6OC[C@H](O)[C@H](O)[C@H]6O[C@@H]6O[C@@H](C)[C@H](O)[C@@H](O)[C@H]6O)[C@@](C)(CO)[C@@H]5CC[C@]43C)[C@@H]12 [Pulchinenoside A]', 'K562', 92),
  ('CO/N=C(\C(=O)N[C@@H]1C(=O)N2C(C(=O)[O-])=C(C[n+]3cccc4c3CCCC4)CS[C@H]12)c1csc(N)n1 [Cefquinome sulfate]', 'K562', 91);

Shift focus to the following entry.
Given Cc1c(-c2ccc(C(N)=O)c3[nH]c4cc(C(C)(C)O)ccc4c23)cccc1-n1cnc2ccccc2c1=O , state its recorded cell viability. 92.2

---

# Test system: OCI-AML2
# test_name: cell viability relative to vehicle control; higher = less cytotoxic
# condition: 10 µM; SRSF2 genotype: wt/wt
Counter-ions that a name gives are not always drawn.
measured_metric: cell viability (%)
// units = %; emit number, no label

INSERT INTO measurements (molecule, measured_metric, assay_value) VALUES
  ('Cc1cc(NS(=O)(=O)c2ccc(N)cc2)nc(C)n1', 'cell viability', 102),
  ('Cn1c(=O)c(Oc2ccc(F)cc2F)cc2cnc(NC(CCO)CCO)nc21', 'cell viability', 92.2),
  ('O=C([O-])c1ccccc1.[Na+] [Sodium benzoate]', 'cell viability', 97.5);

I would be grateful if you could share the reported cell viability for Cc1nccn1CC1CCc2c(c3ccccc3n2C)C1=O (centres undefined) [Ondansetron hydrochloride (Zofran)] . 101

// repeat for CN(C)CCSSCCNC(=O)C1CCN(C(=O)CSc2ccc(Cl)cc2)CC1 and report 79.5

Now this one: NC(=S)N/N=C/c1ncccc1N 15.1

# iterate: OC(CNCC(O)C1CCc2cc(F)ccc2O1)C1CCc2cc(F)ccc2O1 (centres undefined) [Nebivolol HCl] 61.5

Note, next up: CC1(C)CCCC2(C)C1CCC1(C)OC(=O)CC12 (centres undefined) [Sclareolide (Norambreinolide)] 89.7

Now the molecule O=C(NCCS(=O)(=O)c1ccc(C(F)(F)F)cn1)c1ccc(Cl)cc1 102

Follow-up entry: C[C@@H](c1nc(-c2ccc(C#N)cc2)cs1)[C@](O)(Cn1cncn1)c1cc(F)ccc1F 28

What do you get for CC(C)[C@H](CO)Nc1nc(Nc2cccc(Cl)c2)c2ncn(C(C)C)c2n1 ? 54.3

What do you get for OC[C@H]1O[C@@H](Oc2cc(O)cc(/C=C/c3ccc(O[C@@H]4O[C@H](CO)[C@@H](O)[C@H](O)[C@H]4O)cc3O)c2)[C@H](O)[C@@H](O)[C@@H]1O [Mulberroside A] ? 105

How about O=C(O)Cc1ccccc1Nc1c(Cl)cccc1Cl [Diclofenac Diethylamine] ? 103

Now try Cc1cc(C)nc(NS(=O)(=O)c2ccc(N)cc2)n1 [Sulfamethazine] . 96.2

Now consider Oc1cc2c(cc1O)[C@@H]1c3ccc(O)c(O)c3OC[C@]1(O)C2 [Hematoxylin (Hydroxybrazilin)] . 98.4

Try this molecule too: O=c1cc[nH]c(=S)[nH]1 104

Likewise for Cc1onc(-c2c(F)cccc2Cl)c1C(=O)N[C@@H]1C(=O)N2[C@@H]1SC(C)(C)[C@@H]2C(=O)O [Flucloxacillin sodium] ? 107

Next: c1ccc2c(CC3=NCCN3)cccc2c1 [Naphazoline hydrochloride (Naphcon)] 106

Ok, now Cc1cc([C@@H](C)Nc2ccccc2C(=O)O)c2nc(N3CCOCC3)cc(=O)n2c1 56.1

// repeat for CCN(CC)CC(=O)Nc1c(C)cccc1C and report 106

Another: COc1cc(OC)c(NC(=O)Nc2cc(C)on2)cc1Cl 74.3

Same read-out for Nc1c(CC(=O)O)cccc1C(=O)c1ccccc1 [Amfenac Sodium (monohydrate)] ? 99.8

Next: OCc1cc(C(O)CNCCCCCCOCCCCc2ccccc2)ccc1O (centres undefined) 60.2

How about this molecule: CC(C)(C)NC(=O)c1cncn1C1CCN(c2ccc(-c3nnc(C(F)(F)F)o3)cn2)CC1 20.6
